measurement.target: Signal transducer and activator of transcription 3 (Homo sapiens, UniProt P40763)
Sequence (P40763 whole entry): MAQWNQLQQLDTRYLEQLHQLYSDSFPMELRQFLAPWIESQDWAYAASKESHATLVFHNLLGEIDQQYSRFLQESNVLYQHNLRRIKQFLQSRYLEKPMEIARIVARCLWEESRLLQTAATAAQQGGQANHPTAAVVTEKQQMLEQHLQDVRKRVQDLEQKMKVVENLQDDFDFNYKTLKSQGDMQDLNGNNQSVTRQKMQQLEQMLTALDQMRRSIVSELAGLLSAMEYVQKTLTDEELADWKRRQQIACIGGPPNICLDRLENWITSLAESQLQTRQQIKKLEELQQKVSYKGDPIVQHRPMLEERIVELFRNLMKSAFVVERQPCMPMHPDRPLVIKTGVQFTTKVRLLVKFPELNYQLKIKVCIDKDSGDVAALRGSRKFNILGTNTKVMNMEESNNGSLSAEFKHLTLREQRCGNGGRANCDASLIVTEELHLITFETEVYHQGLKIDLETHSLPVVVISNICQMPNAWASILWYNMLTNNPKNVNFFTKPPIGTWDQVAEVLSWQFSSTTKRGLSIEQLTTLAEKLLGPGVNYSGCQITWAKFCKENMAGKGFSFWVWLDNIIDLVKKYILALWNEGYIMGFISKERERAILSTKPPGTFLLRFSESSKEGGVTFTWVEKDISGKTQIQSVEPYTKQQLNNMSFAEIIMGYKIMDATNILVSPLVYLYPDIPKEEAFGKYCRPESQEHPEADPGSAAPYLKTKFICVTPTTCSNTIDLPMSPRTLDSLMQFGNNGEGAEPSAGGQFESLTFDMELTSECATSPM
experiment.summary: Inhibition of STAT3 phosphorylation at Y705 residue in human SB-590885-resistant MEL1617 cells at 10 to 25 uM measured after 12 hrs by Western blot analysis
Format: cell-based
condition.details: dose 10-25 µM
Active and inactive are the calls of the source. The calls are words filed in the database; no cut-off is given here.
Please state which outcome applies, choosing from 1 (active), 0 (inactive)

These recorded examples may help you get a feel for the data.
[[record]]
chemical_structure = "C=CCn1c(SCC(=O)Nc2ccc(/C(C)=N\\O)cc2)nnc1-c1cc(-c2ccc(Cl)cc2)nc2ccccc12"
classification = 1

[[record]]
chemical_structure = "COc1ccc2nc(-c3ccc(Cl)cc3)cc(-c3nnc(SCC(=O)Nc4ccc(/C(C)=N\\O)cc4)n3-c3ccccc3)c2c1"
classification = 0

[[record]]
chemical_structure = "COc1ccc2nc(-c3ccc(OC)c(OC)c3)cc(-c3nnc(SCC(=O)Nc4ccc(/C(C)=N\\O)cc4)n3-c3ccccc3)c2c1"
classification = 0

[[record]]
chemical_structure = "COc1ccc(-c2cc(-c3nnc(SCC(=O)Nc4ccc(/C(C)=N\\O)cc4)n3-c3ccccc3)c3cc(OC)ccc3n2)cc1"
classification = 0


Now, please, on to the next molecule.
What is the recorded call for this molecule in the test? C=CCn1c(SCC(=O)Nc2ccc(/C(C)=N\O)cc2)nnc1-c1cc(-c2ccccc2)nc2ccccc12 1

* * *

measurement.target: Signal transducer and activator of transcription 3 (Homo sapiens)
experiment.summary: Inhibition of STAT3 phosphorylation at S727 residue in human SB-590885-sensitive MEL1617 cells at 10 to 25 uM measured after 12 hrs by Western blot analysis
Assay type: cell-based
condition.details: dose 10-25 µM
The source made the active and inactive calls. No cut-off for these calls is given here.
Pick one and only one: label 1 for active, label 0 for inactive

[[record]]
chemical_structure = "COc1ccc(-c2cc(-c3nnc(SCC(=O)Nc4ccc(/C(C)=N\\O)cc4)n3-c3ccccc3)c3cc(OC)ccc3n2)cc1"
measurement_target = "Signal transducer and activator of transcription 3 (Homo sapiens)"
classification = "label 0"

[[record]]
chemical_structure = "C=CCn1c(SCC(=O)Nc2ccc(/C(C)=N\\O)cc2)nnc1-c1cc(-c2ccccc2)nc2ccccc12"
measurement_target = "Signal transducer and activator of transcription 3 (Homo sapiens)"
classification = "label 1"

[[record]]
chemical_structure = "COc1ccc2nc(-c3ccc(Cl)cc3)cc(-c3nnc(SCC(=O)Nc4ccc(/C(C)=N\\O)cc4)n3-c3ccccc3)c2c1"
measurement_target = "Signal transducer and activator of transcription 3 (Homo sapiens)"
classification = "label 0"

[[record]]
chemical_structure = "C=CCn1c(SCC(=O)Nc2ccc(/C(C)=N\\O)cc2)nnc1-c1cc(-c2ccc(Cl)cc2)nc2ccccc12"
measurement_target = "Signal transducer and activator of transcription 3 (Homo sapiens)"
classification = "label 1"


Attention now shifts to the item below.
What did this assay record as the result for COc1ccc2nc(-c3ccc(OC)c(OC)c3)cc(-c3nnc(SCC(=O)Nc4ccc(/C(C)=N\O)cc4)n3-c3ccccc3)c2c1 ? label 0

* * *

measurement.target: Signal transducer and activator of transcription 3 (Homo sapiens)
experiment.summary: Inhibition of STAT3 in human SB-590885-sensitive MEL1617 cells assessed as reduction in PAX3 expression at 10 to 25 uM measured after 12 hrs by Western blot analysis
Format: cell-based
condition.details: dose 10-25 µM
Calls of active or inactive are those of the source. The rule behind the calls is not given here.
measurement.type: inhibition

[[record]]
chemical_structure = "C=CCn1c(SCC(=O)Nc2ccc(/C(C)=N\\O)cc2)nnc1-c1cc(-c2ccccc2)nc2ccccc12"
reported = "Active"

[[record]]
chemical_structure = "COc1ccc(-c2cc(-c3nnc(SCC(=O)Nc4ccc(/C(C)=N\\O)cc4)n3-c3ccccc3)c3cc(OC)ccc3n2)cc1"
reported = "inactive"

[[record]]
chemical_structure = "C=CCn1c(SCC(=O)Nc2ccc(/C(C)=N\\O)cc2)nnc1-c1cc(-c2ccc(Cl)cc2)nc2ccccc12"
reported = "Active"

[[record]]
chemical_structure = "COc1ccc2nc(-c3ccc(OC)c(OC)c3)cc(-c3nnc(SCC(=O)Nc4ccc(/C(C)=N\\O)cc4)n3-c3ccccc3)c2c1"
reported = "inactive"


Below: the item to evaluate.
Notebook: pull reported inhibition for Signal transducer and activator of transcription 3 (Homo sapiens), entry COc1ccc2nc(-c3ccc(Cl)cc3)cc(-c3nnc(SCC(=O)Nc4ccc(/C(C)=N\O)cc4)n3-c3ccccc3)c2c1 inactive

* * *

measurement.target: Signal transducer and activator of transcription 3 (Homo sapiens)
experiment.summary: Inhibition of STAT3 in human SB-590885-resistant 451Lu cells assessed as reduction in PAX3 expression measured after 12 hrs by Western blot analysis
condition.details: dose 10-25 µM
Active and inactive are the calls of the source. The calls are words filed in the database; no cut-off is given here.
Select the matching outcome among active, inactive

Consider the following illustrative entries.
[[record]]
chemical_structure = "C=CCn1c(SCC(=O)Nc2ccc(/C(C)=N\\O)cc2)nnc1-c1cc(-c2ccccc2)nc2ccccc12"
classification = "active"

[[record]]
chemical_structure = "COc1ccc2nc(-c3ccc(OC)c(OC)c3)cc(-c3nnc(SCC(=O)Nc4ccc(/C(C)=N\\O)cc4)n3-c3ccccc3)c2c1"
classification = "inactive"


Returns: the outcome recorded for C=CCn1c(SCC(=O)Nc2ccc(/C(C)=N\O)cc2)nnc1-c1cc(-c2ccc(Cl)cc2)nc2ccccc12 in this assay. active

Hi, sorry to bother you, what did the test record for COc1ccc(-c2cc(-c3nnc(SCC(=O)Nc4ccc(/C(C)=N\O)cc4)n3-c3ccccc3)c3cc(OC)ccc3n2)cc1 ? inactive

Given COc1ccc2nc(-c3ccc(Cl)cc3)cc(-c3nnc(SCC(=O)Nc4ccc(/C(C)=N\O)cc4)n3-c3ccccc3)c2c1 , state the outcome it received in this test. inactive

* * *

measurement.target: Signal transducer and activator of transcription 3 (Homo sapiens, UniProt P40763)
experiment.summary: Inhibition of STAT3 phosphorylation at Y705 residue in human SB-590885-sensitive MEL1617 cells at 10 to 25 uM measured after 12 hrs by Western blot analysis
Format: cell-based
condition.details: dose 10-25 µM
Active and inactive are the calls of the source. No cut-off for these calls is given here.
measurement.type: inhibition

Consider the reported inhibition for these compounds:
[[record]]
chemical_structure = "COc1ccc2nc(-c3ccc(Cl)cc3)cc(-c3nnc(SCC(=O)Nc4ccc(/C(C)=N\\O)cc4)n3-c3ccccc3)c2c1"
reported = "inactive"

[[record]]
chemical_structure = "C=CCn1c(SCC(=O)Nc2ccc(/C(C)=N\\O)cc2)nnc1-c1cc(-c2ccccc2)nc2ccccc12"
reported = "Active"

[[record]]
chemical_structure = "C=CCn1c(SCC(=O)Nc2ccc(/C(C)=N\\O)cc2)nnc1-c1cc(-c2ccc(Cl)cc2)nc2ccccc12"
reported = "Active"

[[record]]
chemical_structure = "COc1ccc2nc(-c3ccc(OC)c(OC)c3)cc(-c3nnc(SCC(=O)Nc4ccc(/C(C)=N\\O)cc4)n3-c3ccccc3)c2c1"
reported = "inactive"


Let's switch to this compound now.
Value lookup for inhibition; key = COc1ccc(-c2cc(-c3nnc(SCC(=O)Nc4ccc(/C(C)=N\O)cc4)n3-c3ccccc3)c3cc(OC)ccc3n2)cc1 inactive

* * *

measurement.target: Signal transducer and activator of transcription 3 (Homo sapiens, UniProt P40763)
experiment.summary: Inhibition of STAT3 phosphorylation at S727 residue in human SB-590885-resistant 451Lu cells measured after 12 hrs by Western blot analysis
condition.details: dose 10-25 µM
Activity calls are given as the source filed them. The rule behind the calls is not given here.
Return exactly one item of active, inactive

Reference set (4 entries):
[[record]]
chemical_structure = "COc1ccc(-c2cc(-c3nnc(SCC(=O)Nc4ccc(/C(C)=N\\O)cc4)n3-c3ccccc3)c3cc(OC)ccc3n2)cc1"
classification = "inactive"

[[record]]
chemical_structure = "C=CCn1c(SCC(=O)Nc2ccc(/C(C)=N\\O)cc2)nnc1-c1cc(-c2ccccc2)nc2ccccc12"
classification = "active"

[[record]]
chemical_structure = "COc1ccc2nc(-c3ccc(Cl)cc3)cc(-c3nnc(SCC(=O)Nc4ccc(/C(C)=N\\O)cc4)n3-c3ccccc3)c2c1"
classification = "inactive"

[[record]]
chemical_structure = "COc1ccc2nc(-c3ccc(OC)c(OC)c3)cc(-c3nnc(SCC(=O)Nc4ccc(/C(C)=N\\O)cc4)n3-c3ccccc3)c2c1"
classification = "inactive"


Let us examine a further case.
For C=CCn1c(SCC(=O)Nc2ccc(/C(C)=N\O)cc2)nnc1-c1cc(-c2ccc(Cl)cc2)nc2ccccc12 , what call appears in the results of this test? active

* * *

measurement.target: Signal transducer and activator of transcription 3 (Homo sapiens, UniProt P40763)
experiment.summary: Inhibition of STAT3 in human SB-590885-resistant MEL1617 cells assessed as reduction in PAX3 expression at 10 to 25 uM measured after 12 hrs by Western blot analysis
Type: cell-based
condition.details: dose 10-25 µM
Activity calls are given as the source filed them. The calls are words filed in the database; no cut-off is given here.
measurement.type: inhibition

[[record]]
chemical_structure = "C=CCn1c(SCC(=O)Nc2ccc(/C(C)=N\\O)cc2)nnc1-c1cc(-c2ccc(Cl)cc2)nc2ccccc12"
reported = "Active"

[[record]]
chemical_structure = "COc1ccc2nc(-c3ccc(OC)c(OC)c3)cc(-c3nnc(SCC(=O)Nc4ccc(/C(C)=N\\O)cc4)n3-c3ccccc3)c2c1"
reported = "inactive"

[[record]]
chemical_structure = "COc1ccc(-c2cc(-c3nnc(SCC(=O)Nc4ccc(/C(C)=N\\O)cc4)n3-c3ccccc3)c3cc(OC)ccc3n2)cc1"
reported = "inactive"

[[record]]
chemical_structure = "COc1ccc2nc(-c3ccc(Cl)cc3)cc(-c3nnc(SCC(=O)Nc4ccc(/C(C)=N\\O)cc4)n3-c3ccccc3)c2c1"
reported = "inactive"


Entry C=CCn1c(SCC(=O)Nc2ccc(/C(C)=N\O)cc2)nnc1-c1cc(-c2ccccc2)nc2ccccc12 has what inhibition? Active
